- Test system: ATP;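 further: ATP exposure 15 min at 22 °C before imaging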
- protocol: switch fluorescence ratio, 500 uM ATP over buffer (Cy3 cluster intensity, sum of 5 cycles each) (fold (ratio)); higher = stronger signal-on switching upon ATP binding; sequences stand for … in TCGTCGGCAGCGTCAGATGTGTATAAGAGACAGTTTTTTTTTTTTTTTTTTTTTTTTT…TC
- study.conditions: aptamer strand: ATP DNA aptamer (quencher-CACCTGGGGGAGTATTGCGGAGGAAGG + anchor), 100 nM annealed; ATP concentration: 500 uM
quantity: switch fluorescence ratio

INSERT INTO measurements (residues, recorded_measurement) VALUES
  ('AAAAAAGAAG', 1.01),
  ('ATAAGTGGCA', 0.944),
  ('TAGGGGTTTG', 0.979),
  ('CCGGGATCAG', 1.09),
  ('ATCATATTAG', 1.01),
  ('TGGCCGTCAT', 0.98),
  ('GGAGTTTGTG', 0.989),
  ('TCAATTGGGA', 0.983),
  ('TTTGTCAGTT', 0.956),
  ('GTTTTTGGGG', 0.987),
  ('TTTGTGGGTT', 0.997),
  ('CCTCGGGGGG', 1.06),
  ('GACGGGAGGG', 1.02),
  ('GGTTAACGGA', 1),
  ('CTTGACATGT', 0.976),
  ('ATCAGCAGGC', 1.6),
  ('CCAAGCGTGC', 1.76),
  ('TATGATAGCC', 1.04),
  ('GGTTTATCAA', 1),
  ('GATAGTGAAT', 0.962),
  ('TATGTAAGGA', 0.985),
  ('TTTACGCGCA', 1.01),
  ('CCTTTATGGT', 0.983),
  ('CCTTATTGTC', 0.997),
  ('TCGAGTCGTG', 0.992),
  ('AGGAGGTGTC', 1.06),
  ('GCTGTGTGGC', 1.01),
  ('TCGAGTATAT', 0.981),
  ('TAGAGGTGTG', 0.99),
  ('AAGCTTATGC', 1.04),
  ('TCGTTGCATG', 1.01),
  ('GCAGGCACGG', 0.976),
  ('TTTGGAATTG', 0.988),
  ('GGCGAGGGCT', 0.982),
  ('TAAGCCTTG', 0.996),
  ('TAAATGGTCC', 1.07),
  ('TTAGGGGGTT', 1.04),
  ('TTTGGGGAAA', 1.16),
  ('GAAGTTGCCC', 0.994),
  ('ATAATAATGG', 1),
  ('AAATTGTCGT', 0.977),
  ('TCGGGGATG', 1.52),
  ('TCGCGTTTCT', 1.03);
